Please provide measured Curve Class (confirmatory screen) for the entries that follow.
Biological target: CIB1 and αIIb interaction (CIB1-GST : F-αIIb peptide) (Homo sapiens)
Construct: made in house; host or cells: BL-21 plus RIL cells (E. coli)
Sequence (Q99828 whole entry): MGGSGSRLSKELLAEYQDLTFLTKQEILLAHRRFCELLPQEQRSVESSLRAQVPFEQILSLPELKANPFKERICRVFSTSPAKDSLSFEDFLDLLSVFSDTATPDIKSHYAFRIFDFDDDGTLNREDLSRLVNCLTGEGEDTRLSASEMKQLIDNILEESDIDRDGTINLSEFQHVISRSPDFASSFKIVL
Experiment: FP assay, 1536-well qHTS format (primary and confirmatory screen)
Assay type: binding
Conditions: confirmatory screen, qHTS curve class; negative sign = inhibitory curve
Write the number on its own, no unit after it.

Ask: Report Curve Class (confirmatory screen) for `Cl.Nc1cc(C(F)(F)F)ccc1S` please.
Reply: -1.1

Ask: Could you share which Curve Class (confirmatory screen) value was measured for `CC[C@@H](CO)NC(=O)[C@@H]1C=C2c3cccc4c3c(cn4C)C[C@H]2N(C)C1.O=C(O)/C=C\C(=O)O` ?
Reply: -2.2

Ask: Consider the compound shown here: `C=CC1=C(C)c2cc3[nH]c(cc4nc(cc5[nH]c(cc1n2)c(C)c5CCC(=O)O)C(CCC(=O)O)=C4C)c(C)c3C=C` What is its recorded Curve Class (confirmatory screen)?
Reply: -1.1

Ask: Recorded Curve Class (confirmatory screen) for `CN1CCN(c2ccc(Nc3nn4c(=O)c5ccccc5nc4s3)cc2)CC1.O=C(O)C(F)(F)F` , please?
Reply: -2.2

Ask: Entry under review: `COc1ccc(CC(=O)Nc2ccc(S(=O)(=O)Nc3cc(C)on3)cc2)cc1C.O=C(O)C(F)(F)F` . Reported Curve Class (confirmatory screen)?
Reply: -2.4

Ask: May I ask what Curve Class (confirmatory screen) has been recorded for CC(=O)NC(Cc1c[nH]c2ccccc(=O)c12)C(=O)O (stereo not shown) ?
Reply: -2.2

Ask: # get_value(readout='Curve Class (confirmatory screen)', item= `O=C(c1ccccc1)c1no[n+]([O-])c1C(=O)c1ccccc1` )
Reply: -2.2

Ask: // returns reported Curve Class (confirmatory screen) for input `O=C(O)C(F)(F)F.O=C1Nc2ccccc2/C1=N/NC(=S)Nc1ccccc1`
Reply: -1.4

Ask: Requested field: Curve Class (confirmatory screen). Item: CCCCC(CC)CNC(=N)NC(=N)NCCCCCCNC(=N)NC(=N)NCC(CC)CCCC.Cl.Cl.Cl (stereo not shown)
Reply: -2.1

Ask: What does the data say about its Curve Class (confirmatory screen)? Entry: `CN1C[C@H](CNC(=O)OCc2ccccc2)C[C@@H]2c3cccc4c3c(cn4C)C[C@H]21`
Reply: -2.1

Ask: State the recorded Curve Class (confirmatory screen) for this entry: `CN(C)CCCn1cc(C2=C(c3c[nH]c4ccccc34)C(=O)NC2=O)c2ccccc21`
Reply: -2.2

Ask: Item under review: `O=C(Cc1ccc(Cl)c(Cl)c1)Nc1ccc(S(=O)(=O)Nc2cnccn2)cc1.O=C(O)C(F)(F)F` . Reported Curve Class (confirmatory screen)?
Reply: -1.4

Ask: Data request, read-out Curve Class (confirmatory screen), for `NC(=O)c1ccc(Cc2c(-c3cccc(-c4ccccc4)c3)nn(-c3nc(C(=O)O)cs3)c2O)cc1.O=C(O)C(F)(F)F`
Reply: -2.1

Ask: Which value of Curve Class (confirmatory screen) has been reported for `COP(=S)(OC)SCN1C(=O)c2ccccc2C1=O` in the records?
Reply: -2.2

Ask: Returns the measured Curve Class (confirmatory screen) for the input compound. Input: CCOC(=O)c1[nH]c2c(c1C)C(=S)CC(c1ccco1)C2.O=C(O)C(F)(F)F (stereo not shown)
Reply: -1.2

Ask: Look up Curve Class (confirmatory screen): `O=C(O)C(F)(F)F.O=S(=O)(Nc1nc2ccccc2s1)c1ccc(NCc2ccc(Br)cc2O)cc1`
Reply: -2.4

Ask: What does the record list as Curve Class (confirmatory screen) for `O=C(O)C(F)(F)F.c1ccc(-n2ccc(-c3nnc4n3CCCCC4)c2)cc1` ?
Reply: -2.1

Ask: Record request: Curve Class (confirmatory screen) value, item `COc1cccc2nc(-c3cccs3)nc(NN3C(=O)C=C(C)C3=O)c12`
Reply: -1.4

Ask: For `Cc1ccc(CNc2ncnc3ccc(-c4ccc([C@@H](C)O)o4)cc23)o1` , what is its reported Curve Class (confirmatory screen)?
Reply: -1.2

Ask: Suppose we examine the compound `O=C(O)C(F)(F)F.O=C(O)c1ccc(O)c2ncc(-c3n[nH]nc3-c3ccccc3)cc12` ; what Curve Class (confirmatory screen) value has been reported?
Reply: -1.4

Ask: For `O=C1Nc2cc(Cl)ccc2Nc2cscc21` , what is its reported Curve Class (confirmatory screen)?
Reply: -3

Ask: Suppose we examine the compound `NC[C@@H](O)c1ccc(O)c(O)c1.O=C(O)C(O)C(O)C(=O)O` ; what Curve Class (confirmatory screen) value has been reported?
Reply: -3

Ask: Which measured Curve Class (confirmatory screen) value corresponds to `CCN(CC)CCN(Cc1ccc(-c2ccc(C(F)(F)F)cc2)cc1)C(=O)Cn1c(SCc2ccc(F)cc2)nc(=O)c2c1CCC2` ?
Reply: -1.2

Ask: What does the data say about its Curve Class (confirmatory screen)? Entry: `O=c1c(O)c(-c2ccc(O)c(O)c2)oc2cc(O)cc(O)c12`
Reply: -2.4

Ask: Fill in: Curve Class (confirmatory screen) of `CC1=C[C@@H]2[C@H]([C@@H](O)C[C@@]3(C)[C@H]2C[C@@H](C)[C@]3(O)C(=O)CO)[C@@]2(C)Cc3cnn(-c4ccccc4)c3C=C12` is ___
Reply: -1.4

Ask: Which measured Curve Class (confirmatory screen) value corresponds to `COc1ccc(S(=O)(=O)Nc2cnccc2C(=O)Nc2nc(-c3ccccc3)cs2)cc1.O=C(O)C(F)(F)F` ?
Reply: -2.2

Ask: // query Curve Class (confirmatory screen) value for entry `O=C(O)C(F)(F)F.O=S(=O)(Nc1nccs1)c1ccc(NCc2cc(F)cc(Cl)c2O)cc1`
Reply: -1.4

Ask: So what's the measured Curve Class (confirmatory screen) for this one? `CNc1ccc([N+](=O)[O-])c(Nc2ccc3[nH]ncc3c2)n1`
Reply: -1.2

Ask: Return reported Curve Class (confirmatory screen); argument: `CCOC(=O)c1c(-c2ccc(C)o2)csc1NC(=O)CSc1nnnn1-c1ccccc1.O=C(O)C(F)(F)F`
Reply: -2.2

Ask: Reported Curve Class (confirmatory screen), compound `Cn1c(NC2=NC3(CCCC3)C3=C(CCCC3=O)N2)nc2ccccc21.O=C(O)C(F)(F)F` : ____
Reply: -2.4

Ask: Name the reported Curve Class (confirmatory screen) value associated with the compound `CN1CCN([C@H]2CC[C@H](n3cc(-c4ccc(Oc5ccccc5)cc4)c4c(N)ncnc43)CC2)CC1.Cl`
Reply: -2.2
